# assay system: HCV NS5B RdRp genotype 1b (Hepatitis C virus genotype 1b)
# Construct: The protein was expressed with an 18 amino acid C-terminal truncation to enhance the solubility; made in house; host or cells: E. coli BL21 (DE3), pET21a
# Sequence (Q9WMX2 2420-2992): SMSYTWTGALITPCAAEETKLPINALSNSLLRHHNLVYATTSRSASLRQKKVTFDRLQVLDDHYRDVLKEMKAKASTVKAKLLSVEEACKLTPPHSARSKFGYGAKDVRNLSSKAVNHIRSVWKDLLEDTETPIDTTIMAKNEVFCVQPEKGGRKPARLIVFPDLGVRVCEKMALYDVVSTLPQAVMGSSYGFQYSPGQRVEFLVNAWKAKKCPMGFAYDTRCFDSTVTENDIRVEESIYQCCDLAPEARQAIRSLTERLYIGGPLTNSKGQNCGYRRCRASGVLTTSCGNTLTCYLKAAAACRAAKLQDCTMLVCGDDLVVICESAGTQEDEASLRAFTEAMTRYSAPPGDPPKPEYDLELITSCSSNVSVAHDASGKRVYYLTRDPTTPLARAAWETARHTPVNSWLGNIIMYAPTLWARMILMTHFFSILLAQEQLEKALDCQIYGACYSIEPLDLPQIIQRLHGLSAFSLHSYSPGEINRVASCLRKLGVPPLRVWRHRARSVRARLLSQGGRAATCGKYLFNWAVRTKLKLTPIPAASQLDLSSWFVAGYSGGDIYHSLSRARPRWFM
# test description: Modified HCV NS5B RdRp enzyme assay (with preincubation)
# Assay type: biochemical
# test settings: modified method (with preincubation)
Item-by-item account of IC50
measurement label: IC50

CN(C)S(=O)(=O)NC(=O)c1ccc2c(C3CCCCC3)c3n(c2c1)CCNc1ccccc1-3: 0.02 to 1 µM
CC1CN(C(=O)C2=Cc3ccccc3-c3c(C4CCCCC4)c4ccc(C(=O)NS(=O)(=O)N(C)C)cc4n3C2)CC(C)N1 (centres unmarked): 0.02 to 1 µM
O=C(O)c1ccc2c(C3CCCCC3)c3n(c2c1)C/C=C\CN(CCO)c1ccccc1-3: > 1 µM
O=C(NS(=O)(=O)N1CCCC1)c1ccc2c(C3CCCCC3)c3n(c2c1)CC(C(=O)N1CCOCC1)Cc1ccccc1-3 (centres unmarked): 0.02 to 1 µM
O=C(NS(=O)(=O)N1CCCC1)c1ccc2c(C3CCCCC3)c3n(c2c1)CC(C(=O)N1CCOCC1)=Cc1ccccc1-3: 0.02 to 1 µM
CS(=O)(=O)NC(=O)c1ccc2c(C3CCCCC3)c3n(c2c1)CC(C(=O)N1CCOCC1)Cc1ccccc1-3 (centres unmarked) [drawing 348]: 0.02 to 1 µM
COC(=O)c1ccc2c(C3CCCCC3)c3n(c2c1)CC(C(=O)O)=Cc1ccc(Cl)cc1-3: > 1 µM
CN(C)S(=O)(=O)NC(=O)c1ccc2c(C3CCCCC3)c3n(c2c1)C[C@H](C(=O)N1CCOCC1)Cc1ccccc1-3: 0.02 to 1 µM
